Assay read-out IC50 on Angiopoietin-1 receptor (Homo sapiens, UniProt Q02763); records merged from the literature.

Sample answers from the record:
- MOL SMILES: "COc1ccc(-c2nc(-c3ccncc3)nn2CCN(C(=O)Nc2cccc3ccccc23)C2CCCC2)cc1Cl"
  TARGET SYSTEM: "Angiopoietin-1 receptor (Homo sapiens, UniProt Q02763)"
  IC50: "< 0.05 µM"
- MOL SMILES: "COc1ccc(-c2nc(-c3ccncc3)nn2CCN(C(=O)Nc2ccc(Cl)cc2Cl)C2CCCC2)cc1Cl"
  TARGET SYSTEM: "Angiopoietin-1 receptor (Homo sapiens, UniProt Q02763)"
  IC50: "≥ 10 µM"
- MOL SMILES: "CCOC(=O)Cc1cn(-c2ncnc(Nc3cc(OC)c(OC)c(OC)c3)n2)c2ccccc12"
  TARGET SYSTEM: "Angiopoietin-1 receptor (Homo sapiens, UniProt Q02763)"
  IC50: "> 9.71 µM"

## Input Bench note: what IC50 did Cc1nc(-c2ccnnc2)nn1CCN(C(=O)Cc1cccc2ccccc12)C1CCCC1 show?
## Output 0.05 to 1 µM

## Input And what about the compound COc1cc(Nc2ncnc(Nc3ccc(F)cc3)n2)cc(OC)c1OC ?
## Output 1.08 to 6.46 µM

## Input What do you get for COc1cc(Nc2ncnc(Nc3ccc(Br)c(Cl)c3)n2)cc(OC)c1OC ?
## Output > 9.64 µM

## Input Try this compound too: COc1cc(Nc2ncnc(Nc3ccc(Oc4ccccc4)cc3)n2)cc(OC)c1OC
## Output > 10.1 µM

## Input Entry COc1cc2nccc(Oc3nsnc3N3CCN(C(=O)Nc4cc(C(F)(F)F)cc(C(F)(F)F)c4)CC3)c2cc1OC please
## Output < 0.05 µM

###

Here's a roundup of IC50 values tested on Angiopoietin-1 receptor (Homo sapiens, UniProt Q02763), taken from various published works.

Reference set (4 entries):
- MOL SMILES: "CNc1nc2ccccc2n1-c1ncnc(Nc2cc(OC)c(OC)c(OC)c2)n1"
  IC50: "> 11 µM"
- MOL SMILES: "CSc1nccc(-c2nc(N[C@H]3c4ccccc4C[C@H]3O)c3ccccc3n2)n1"
  IC50: "≥ 10 µM"
- MOL SMILES: "CCNC(=O)N1CCN(c2ncccc2OCc2ccnc(N)n2)CC1"
  IC50: "≥ 10 µM"
- MOL SMILES: "CCOC(=O)Cn1nc(-c2cc(Cl)cc(Cl)c2)nc1-c1ccncc1"
  IC50: "≥ 10 µM"

// next entry
## Input Reported IC50 for COc1ccc(Nc2ccc(Nc3ncnc(Nc4cc(OC)c(OC)c(OC)c4)n3)cc2)cc1 : what is it?
## Output 0.843 to 5.06 µM

###

pIC50: −log10 of the molar value.
Header: pIC50 / UniProt:Q02763 / multiple publications

Example entries begin here.
- MOL SMILES: "CCc1cccc(NC(=O)N2CCN(c3ncccc3OCc3ccnc(NC(=O)OCCN4CCN(C)CC4)c3)CC2)c1"
  pIC50: "> 7.30"
- MOL SMILES: "COc1cc(Nc2ncnc(Nc3cc(-c4ccccc4)n[nH]3)n2)cc(OC)c1OC"
  pIC50: "5.08 to 5.24"
- MOL SMILES: "c1ccc2c(N3CCNCC3)nc(-c3ccncc3)nc2c1"
  pIC50: "≤ 5.00"
- MOL SMILES: "COC(=O)c1ccc(Nc2ncnc(Nc3cc(-c4ccco4)n[nH]3)n2)cc1"
  pIC50: "< 4.92"

## Input // returns reported pIC50 for input COc1cccc(Nc2ncnc(-c3ccccc3)n2)c1
## Output < 4.79

## Input Ok, now O[C@@H]1CCC[C@H]1Nc1nc(-c2ccccc2)nc2ccccc12
## Output ≤ 5.00

## Input Same lookup for COCCOc1ccc(Nc2ncnc(Nc3ccc(C)c(O)c3)n2)cc1OCCOC , please.
## Output < 4.99

## Input What do you get for COc1cc(Nc2ncnc(-n3cnc4ccccc43)n2)cc(OC)c1OC ?
## Output 4.92 to 5.03

## Input Okay, and Fc1ccc(CNc2nc(-c3ccncc3)nc3ccccc23)cc1 ?
## Output 5.00 to 6.00

###

The entries below pair molecules with IC50 values for Angiopoietin-1 receptor (Homo sapiens), as found in several publications.

The examples below pair each entry with its known result.
- MOLECULE: "O=C(Cc1cccc2ccccc12)N(CCn1nc(-c2ccco2)nc1-c1ccncc1)C1CCCC1"
  IC50: "50 to 1000 nM"
- MOLECULE: "COc1cc(Nc2ncnc(Nc3cccc4ccccc34)n2)cc(OC)c1OCCN1CCOCC1"
  IC50: "796 to 4780 nM"
- MOLECULE: "Nc1nc2ccccc2n1-c1ncnc(Nc2ccc(-c3ccccc3)cc2)n1"
  IC50: "1050 to 6330 nM"
- MOLECULE: "COc1cc(NC(=O)Nc2ncnc(Nc3cc(OC)c(OC)c(OC)c3)n2)cc(OC)c1"
  IC50: "7670 to 9860 nM"
- MOLECULE: "Cc1ccc(C(=O)Nc2cccc(C(C)C)c2)cc1Nc1ncccc1-c1nnn[nH]1"
  IC50: "≤ 1000 nM"
- MOLECULE: "COc1cc(Nc2ncnc(Nc3n[nH]c(Nc4ccc(Cl)cc4)n3)n2)cc(OC)c1OC"
  IC50: "851 to 5110 nM"
- MOLECULE: "O=C(Nc1cc(C(F)(F)F)cc(C(F)(F)F)c1)N1CCCN(c2nccnc2OCc2ccncc2)CC1"
  IC50: "50 to 1000 nM"
- MOLECULE: "COc1ccc(Nc2ncnc(-n3c(N)nc4ccccc43)n2)cn1"
  IC50: "> 13500 nM"

## Input Using the record for COC(=O)c1sccc1Nc1ncnc(Nc2cc(OC)c(OC)c(OC)c2)n1 , report its IC50.
## Output > 10800 nM

## Input // same read-out, input: COC(=O)Nc1cc(COc2nsnc2N2CCN(C(=O)Nc3cc(C(F)(F)F)cc(C(F)(F)F)c3)CC2)ccn1
## Output < 50 nM

## Input Now consider COc1cc(Nc2ncnc(-n3c(NCc4ccccn4)nc4ccccc43)n2)cc(OC)c1OC and answer again.
## Output > 9290 nM

###

pIC50: −log10 of the molar value.
Across several studies, compounds have been characterized by their pIC50 on Angiopoietin-1 receptor (Homo sapiens); a selection follows.

Example entries and their recorded answers appear below.
- MOL SMILES: "COc1cc(Nc2ncnc(Nc3ccc4[nH]ncc4c3)n2)cc(OC)c1OC"
  TEST RESULT: "< 4.94"
- MOL SMILES: "Nc1nccc(COc2nccnc2N2CCN(C(=O)Nc3cc(Cl)cc(Cl)c3)CC2)n1"
  TEST RESULT: "> 7.30"
- MOL SMILES: "COc1cc(Nc2ncnc(Nc3cccc(F)c3)n2)cc(OC)c1OC"
  TEST RESULT: "< 4.92"
- MOL SMILES: "COc1cc(Nc2ncnc(Nc3nnc(-c4ccccc4)[nH]3)n2)cc(OC)c1OC"
  TEST RESULT: "< 4.97"
- MOL SMILES: "NC(=O)c1cccc(Nc2ncnc(Nc3cc(-c4ccco4)n[nH]3)n2)c1"
  TEST RESULT: "< 4.91"
- MOL SMILES: "Cc1nc(-c2ccnc(N3CCOCC3)c2)nn1CCN(C(=O)Cc1cccc2ccccc12)C1CCCC1"
  TEST RESULT: "5.00 to 6.00"

## Input Find the recorded pIC50 belonging to c1ccc2c(NCCN3CCCC3)nc(-c3ccncc3)nc2c1 and report it.
## Output ≤ 5.00

## Input Next compound up: COc1ccc(N(C)c2ncnc(Nc3cc(OC)c(OC)c(OC)c3)n2)cc1
## Output < 4.95

## Input Proceed to O[C@H]1Cc2ccccc2[C@H]1Nc1nc(-c2ccccn2)nc2ccccc12
## Output ≤ 5.00

###

Ok so here's the combined literature set: IC50 for Angiopoietin-1 receptor (Homo sapiens).

The examples below pair each entry with its known result.
- MOLECULE: "COc1ccc(-c2nc(-c3ccncc3)nn2CCN(C(=O)Nc2ccccc2SC)C2CCCC2)cc1Cl"
  TARGET SYSTEM: "Angiopoietin-1 receptor (Homo sapiens)"
  IC50: "≥ 10 µM"
- MOLECULE: "COc1cc(Nc2ncnc(Nc3ccc(C)cc3F)n2)cc(OC)c1OC"
  TARGET SYSTEM: "Angiopoietin-1 receptor (Homo sapiens)"
  IC50: "> 11.7 µM"
- MOLECULE: "CCCCOc1cccc(-c2cn(C3CC(CN)C3)c3ncnc(N)c23)c1 (stereo not drawn)"
  TARGET SYSTEM: "Angiopoietin-1 receptor (Homo sapiens)"
  IC50: "0.91 µM"

## Input Query the reported IC50 for Angiopoietin-1 receptor (Homo sapiens); item: COc1ccc(-c2nc(-c3ccncc3)nn2CCN(C(=O)c2cccc3ccccc23)C2CCCC2)cc1Cl
## Output 1 to 10 µM

## Input Also CC(C)c1cccc(NC(=O)N2CCN(c3ncccc3OCc3ccnc(N)n3)CC2)c1 ?
## Output < 0.05 µM

## Input What would you report for N#Cc1nccc(COc2nsnc2N2CCN(C(=O)Nc3cc(C(F)(F)F)cc(C(F)(F)F)c3)CC2)n1 ?
## Output ≥ 10 µM

## Input What do you have for N#Cc1nc(OCc2ccncc2)c(N2CCN(C(=O)Nc3cccc(C(F)(F)F)c3)CC2)nc1C#N ?
## Output 0.05 to 1 µM

## Input Again, but for CN1CCN(CC(=O)Nc2cc(COc3cccnc3N3CCN(C(=O)Nc4cc(C(F)(F)F)ccc4F)CC3)ccn2)CC1
## Output 0.05 to 1 µM

## Input // next record CC(=O)N1CCN(c2ncccc2OCc2ccnc(N)n2)CC1
## Output ≥ 10 µM
